Test system: ragweed
Assay: Test C preemergence
Assay type: in vivo, Ambrosia elatior
Details: 16 g ai/ha, preemergence; scale 0 to 100 (0 no effect, 100 complete control)
Rule: measured Ragweed plant response rating below 10 gets true; anything equal to or greater than 10 gets false.

These solved cases illustrate the format of a correct answer.
N#Cc1cccc(Oc2ncc(F)cn2)c1-n1cc(I)cn1
true
CCCOc1cnn(-c2c(C#N)cccc2Oc2ncc(Cl)cn2)c1
true
FCc1cccc(Oc2ncc(Cl)cn2)c1-n1cc(Br)cn1
true
N#Cc1cccc(Oc2ncc(Br)cn2)c1-n1cc(I)cn1
true
COc1cnn(-c2c(C#N)cccc2Oc2ncc(Cl)cn2)c1
false
FCc1cccc(Oc2ncc(Cl)cn2)c1-n1cc(Cl)cn1
false

Would you kindly look at the next entry?
Problem: Hi there! Is Ragweed plant response rating for Cc1cnc(Oc2cccc(C#N)c2-n2cc(I)cn2)nc1 below 10, do you know?
Solution: true
